assay: UGTs/CYPs dual-activity mouse liver microsomal stability; format: in vitro ADME; details: 0.5 h; 5 μM; NADPH + UDP-GlcUA
Reported Endpoint: UGTs/CYPs dual-activity mouse liver microsomal stability (%)

compound="O=C(NCC12C[C@H]3C[C@@H](C1)C[C@@H](C2)C3)Nc1ccc2c(ccn2C(=O)c2ccc(F)cc2)c1 [Compound 36]" value_reported=11.9
compound="O=C(Nc1ccc2c(c1)CCN2Cc1ccc(F)cc1)NC12C[C@H]3C[C@@H](C1)C[C@@H](C2)C3 [Compound 6]" value_reported=10.9
compound="CC(C)c1ccc(Cn2ccc3cc(NC(=O)NCC45C[C@H]6C[C@@H](C4)C[C@@H](C5)C6)ccc32)cc1 [Compound 28]" value_reported=69.8

P = O=C(NCC12C[C@H]3C[C@@H](C1)C[C@@H](C2)C3)Nc1ccc2c(ccn2CCc2ccc(F)cc2)c1 [Compound 30]
Q = O=C(NCC12C[C@H]3C[C@@H](C1)C[C@@H](C2)C3)Nc1ccc2c(ccn2Cc2ccc(F)cc2)c1 [Compound 27]
Exercise: Identify the entry with the smaller UGTs/CYPs dual-activity mouse liver microsomal stability: P or Q . When you have decided, please share the label of that item.
Key: Q
(Q: 3.2%, P: 9.3%)

* * *

The following compounds are shown together with reported IC50 values.
target: 5-LOX (Homo sapiens, UniProt P09917); experiment: Cell-free 5-LOX activity assay; assay type: biochemical; set-up: made in house; host or cells: Escherichia coli Bl21 (DE3); conditions: human isolated 5-LOX

Worked examples follow.
smiles_repr=O=C(NCC12C[C@H]3C[C@@H](C1)C[C@@H](C2)C3)Nc1ccc2c(ccn2Cc2ccc(C(=O)O)cc2)c1 reported_endpoint=IC50 value_reported="> 1000 nM"
smiles_repr=O=C(NCc1cccc2ccccc12)Nc1ccc2c(c1)CCN2Cc1ccc(F)cc1 reported_endpoint=IC50 value_reported="148 nM"
smiles_repr=O=C(NCC12C[C@H]3C[C@@H](C1)C[C@@H](C2)C3)Nc1ccc2c(ccn2-c2ccc(F)cc2)c1 reported_endpoint=IC50 value_reported="> 1000 nM"
smiles_repr=O=C(NCC12C[C@H]3C[C@@H](C1)C[C@@H](C2)C3)Nc1ccc2c(ccn2CCc2ccc(F)cc2)c1 reported_endpoint=IC50 value_reported="> 1000 nM"

The compound listed as O=C(Nc1ccc2c(ccn2Cc2ccc(F)cc2)c1)NC12C[C@H]3C[C@@H](C1)C[C@@H](C2)C3 has a reported IC50 of > 1000 nM

The compound listed as O=C(Nc1ccc2c(c1)CCN2Cc1ccc(F)cc1)NC12C[C@H]3C[C@@H](C1)C[C@@H](C2)C3 has a reported IC50 of 71 nM

The compound listed as O=C(O)CCCn1ccc2cc(NC(=O)NCC34C[C@H]5C[C@@H](C3)C[C@@H](C4)C5)ccc21 has a reported IC50 of > 1000 nM

* * *

Experiment: Chemical stability in phosphate buffer pH 7.4
Format: physicochemical
Conditions: 0.5 h; 5 μM; compound remaining relative to 0 min
Description: The chemical and metabolic stabilities of compounds 6, 27, 28, 30, and 36 were monitored using a UHPLC system (Shimadzu, Kyoto, Japan) consisting of a CBM-40 Lite controller, two LC-40B X3 solvent delivery modules, an SPD-M40 photodiode array detector, a CTO-30A column oven and, a SIL-40AC X3 autosampler. […] 1.25 μL of test compounds (5 μM final incubation concentration) was incubated in 200 μL of phosphate buffer at pH 7.4. […] Finally, the concentration of the test compound was quantified by LC-MS. […]
Reported Endpoint: chemical stability in phosphate buffer (pH 7.4) (%)

compound="O=C(Nc1ccc2c(c1)CCN2Cc1ccc(F)cc1)NC12C[C@H]3C[C@@H](C1)C[C@@H](C2)C3 [Compound 6]" value_reported=97.9
compound="CC(C)c1ccc(Cn2ccc3cc(NC(=O)NCC45C[C@H]6C[C@@H](C4)C[C@@H](C5)C6)ccc32)cc1 [Compound 28]" value_reported=102.0
compound="O=C(NCC12C[C@H]3C[C@@H](C1)C[C@@H](C2)C3)Nc1ccc2c(ccn2CCc2ccc(F)cc2)c1 [Compound 30]" value_reported=102.5
compound="O=C(NCC12C[C@H]3C[C@@H](C1)C[C@@H](C2)C3)Nc1ccc2c(ccn2C(=O)c2ccc(F)cc2)c1 [Compound 36]" value_reported=96.3
compound="O=C(NCC12C[C@H]3C[C@@H](C1)C[C@@H](C2)C3)Nc1ccc2c(ccn2Cc2ccc(F)cc2)c1 [Compound 27]" value_reported=99.2

* * *

test: In vivo pharmacokinetic profile in mice after i.p. administration; settings: mouse, plasma, ip, 10 mg/kg i.p., single dose
Reported Endpoint: AUC(0-inf) at 24 h (ng·h/mL)
# number only, unit ng·h/mL dropped from output

The compound listed as CC(C)c1ccc(Cn2ccc3cc(NC(=O)NCC45C[C@H]6C[C@@H](C4)C[C@@H](C5)C6)ccc32)cc1 [Compound 28] has a reported AUC(0-inf) at 24 h of 29.9

* * *

experiment: Chemical stability in phosphate buffer pH 7.4; assay type: physicochemical; conditions: 1.0 h; 5 μM
Reported Endpoint: chemical stability in phosphate buffer (pH 7.4) (%)

smiles_repr=O=C(NCC12C[C@H]3C[C@@H](C1)C[C@@H](C2)C3)Nc1ccc2c(ccn2CCc2ccc(F)cc2)c1 value_reported=100.3
smiles_repr=O=C(NCC12C[C@H]3C[C@@H](C1)C[C@@H](C2)C3)Nc1ccc2c(ccn2C(=O)c2ccc(F)cc2)c1 value_reported=95.2
smiles_repr=O=C(Nc1ccc2c(c1)CCN2Cc1ccc(F)cc1)NC12C[C@H]3C[C@@H](C1)C[C@@H](C2)C3 value_reported=100.7
smiles_repr=CC(C)c1ccc(Cn2ccc3cc(NC(=O)NCC45C[C@H]6C[C@@H](C4)C[C@@H](C5)C6)ccc32)cc1 value_reported=101.7
smiles_repr=O=C(NCC12C[C@H]3C[C@@H](C1)C[C@@H](C2)C3)Nc1ccc2c(ccn2Cc2ccc(F)cc2)c1 value_reported=95.5

* * *

experiment: UGTs/CYPs dual-activity mouse liver microsomal stability; format: in vitro ADME; settings: CD-1; mouse liver microsomes; read-out: microsomal intrinsic clearance (CLint,micr)
Reported Endpoint: microsomal CLint at 1 h, 5 µM (µL/min/mg)

Worked examples follow.
smiles_repr=O=C(NCC12C[C@H]3C[C@@H](C1)C[C@@H](C2)C3)Nc1ccc2c(ccn2C(=O)c2ccc(F)cc2)c1 reported_endpoint="microsomal CLint at 1 h, 5 µM" result_unit=µL/min/mg value_reported=118
smiles_repr=O=C(NCC12C[C@H]3C[C@@H](C1)C[C@@H](C2)C3)Nc1ccc2c(ccn2CCc2ccc(F)cc2)c1 reported_endpoint="microsomal CLint at 1 h, 5 µM" result_unit=µL/min/mg value_reported=86.6

I = O=C(NCC12C[C@H]3C[C@@H](C1)C[C@@H](C2)C3)Nc1ccc2c(ccn2Cc2ccc(F)cc2)c1
II = O=C(Nc1ccc2c(c1)CCN2Cc1ccc(F)cc1)NC12C[C@H]3C[C@@H](C1)C[C@@H](C2)C3
Exercise: Which numeric microsomal CLint at 1 h, 5 µM is bigger, that of I or that of II ? When you have decided, please share the label of that item.
Key: I

* * *

Molecular target: 5-LOX (Homo sapiens, UniProt P09917)
Sequence (P09917 1-674): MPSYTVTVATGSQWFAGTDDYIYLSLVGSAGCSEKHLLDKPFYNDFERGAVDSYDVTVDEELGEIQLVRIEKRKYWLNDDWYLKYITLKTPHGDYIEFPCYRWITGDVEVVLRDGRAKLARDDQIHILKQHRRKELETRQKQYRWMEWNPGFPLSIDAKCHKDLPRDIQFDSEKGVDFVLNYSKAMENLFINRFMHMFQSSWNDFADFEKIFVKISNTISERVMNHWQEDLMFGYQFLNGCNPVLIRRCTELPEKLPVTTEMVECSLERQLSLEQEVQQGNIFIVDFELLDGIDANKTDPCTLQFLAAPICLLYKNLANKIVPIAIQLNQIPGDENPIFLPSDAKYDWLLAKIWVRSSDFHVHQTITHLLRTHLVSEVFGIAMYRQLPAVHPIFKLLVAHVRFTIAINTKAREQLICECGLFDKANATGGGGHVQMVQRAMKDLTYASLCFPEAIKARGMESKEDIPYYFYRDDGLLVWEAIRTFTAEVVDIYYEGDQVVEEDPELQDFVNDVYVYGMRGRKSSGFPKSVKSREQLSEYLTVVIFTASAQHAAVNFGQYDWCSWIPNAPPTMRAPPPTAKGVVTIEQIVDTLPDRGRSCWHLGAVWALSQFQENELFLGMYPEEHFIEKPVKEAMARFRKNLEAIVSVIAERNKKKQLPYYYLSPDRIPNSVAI
Test: 5-LOX product formation in human activated PMNL (A23187)
Format: cell-based
Design: Freshly isolated PMNL (5 × 10^6) suspended in PBS pH 7.4 with 1 mg/mL glucose were preincubated with the test compounds; endogenous in cells; host or cells: human PMNL from donor blood; dose or concentration left out as unconfirmed
Settings: PMNL; read-out: 5-LO residual activity in PMNL (%)
Reported Endpoint: remaining activity (%)

Worked examples follow.
compound="O=C(Nc1ccc2c(ccn2Cc2ccc(F)cc2)c1)NC12C[C@H]3C[C@@H](C1)C[C@@H](C2)C3 [Compound 33]" result_unit=% value_reported=97.8
compound="O=C(NCc1cccc2ccccc12)Nc1ccc2c(c1)CCN2Cc1ccc(F)cc1 [Compound 7]" result_unit=% value_reported=56.3
compound="O=C(NCC12C[C@H]3C[C@@H](C1)C[C@@H](C2)C3)Nc1ccc2c(c1)CCN2Cc1ccc(C(=O)O)cc1 [Compound 14]" result_unit=% value_reported=57.7
compound="COC(=O)c1ccc(Cn2ccc3cc(NC(=O)NCC45C[C@H]6C[C@@H](C4)C[C@@H](C5)C6)ccc32)cc1 [Compound 29]" result_unit=% value_reported=65.1
compound="O=C(NCC12C[C@H]3C[C@@H](C1)C[C@@H](C2)C3)Nc1ccc2c(ccn2C(=O)c2ccc(F)cc2)c1 [Compound 36]" result_unit=% value_reported=58.1

P = O=C(NCC12C[C@H]3C[C@@H](C1)C[C@@H](C2)C3)Nc1ccc2c(ccn2Cc2ccc(C(=O)O)cc2)c1 [Compound 37]
Q = COC(=O)CCCn1ccc2cc(NC(=O)NCC34C[C@H]5C[C@@H](C3)C[C@@H](C4)C5)ccc21 [Compound 32]
R = O=C(NCC12C[C@H]3C[C@@H](C1)C[C@@H](C2)C3)Nc1ccc2c(c1)c1ccccc1n2Cc1ccc(F)cc1 [Compound 48]
S = NCc1ccc(Cn2ccc3cc(NC(=O)NCC45C[C@H]6C[C@@H](C4)C[C@@H](C5)C6)ccc32)cc1 [Compound 42]
Exercise: Hey, can you sort those compounds up there by remaining activity, smallest first? Provide your answer as the labels ordered per the instruction.
Key: P, S, Q, R
(P: 2.1%, S: 6.6%, Q: 30.1%, R: 92.6%)

a = O=C(NCC12C[C@H]3C[C@@H](C1)C[C@@H](C2)C3)Nc1ccc2c(ccn2Cc2ccc(F)cc2)c1 [Compound 27]
b = CC1(C)C2CC[C@@]1(CS(=O)(=O)Nc1ccc3c(c1)CCN3Cc1ccc(F)cc1)C(=O)C2 [Compound 4]
Exercise: Identify the entry with the smaller remaining activity: a or b . When you have decided, please share the label of that item.
Key: b
